Source of measurements: patent US20150086555A1

Target: recombinant homotrimeric HA A/Egypt/3300-NAMRU3/08 H5N1 (Influenza A virus A/Egypt/3300-NAMRU3/2008(H5N1))
Experiment: protein microarray, purified IgG, trimeric HA
Conditions: remark: other sources report otherwise
Observation type: Trimeric HA Binding: RLU (RLU)

[
  {
    "Binder": "TCN-545 (5082_I15) (antibody, V domains shown) VH: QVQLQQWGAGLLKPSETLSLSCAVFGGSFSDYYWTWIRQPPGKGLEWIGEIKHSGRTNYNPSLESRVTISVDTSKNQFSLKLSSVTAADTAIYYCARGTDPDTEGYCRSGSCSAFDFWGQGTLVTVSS VL: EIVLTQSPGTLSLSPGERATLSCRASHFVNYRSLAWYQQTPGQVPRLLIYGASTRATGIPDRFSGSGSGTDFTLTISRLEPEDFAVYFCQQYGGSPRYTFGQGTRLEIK",
    "Unit label": "RLU",
    "Assay value": 1410
  },
  {
    "Binder": "TCN-534 (5249_B02) (antibody, V domains shown) VH: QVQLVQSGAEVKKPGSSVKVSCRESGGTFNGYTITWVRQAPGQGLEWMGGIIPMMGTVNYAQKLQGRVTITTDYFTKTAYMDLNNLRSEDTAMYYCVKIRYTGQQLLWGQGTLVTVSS VL: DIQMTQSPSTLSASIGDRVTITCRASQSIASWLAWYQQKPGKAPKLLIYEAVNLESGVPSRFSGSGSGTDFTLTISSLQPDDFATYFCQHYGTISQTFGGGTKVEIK",
    "Unit label": "RLU",
    "Assay value": 18200
  },
  {
    "Binder": "TCN-537 (3194_D21) (antibody, V domains shown) VH: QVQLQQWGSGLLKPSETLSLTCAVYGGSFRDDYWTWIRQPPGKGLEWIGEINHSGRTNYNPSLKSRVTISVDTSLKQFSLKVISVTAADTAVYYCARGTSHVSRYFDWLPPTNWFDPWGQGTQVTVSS VL: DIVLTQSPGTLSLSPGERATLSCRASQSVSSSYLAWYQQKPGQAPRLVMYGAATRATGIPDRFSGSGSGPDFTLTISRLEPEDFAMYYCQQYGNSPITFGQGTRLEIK",
    "Unit label": "RLU",
    "Assay value": 3190
  }
]
